Measured MIC values are reported for all entries that follow.
tested on: Mycobacterium tuberculosis; assay: Antitubercular activity against Mycobacterium tuberculosis H37Rv after 3 weeks by turbidity assay; assay type: functional; conditions: 504 h
Number only, in mg/L; omit the unit.

compound	target-desc	MIC [mg/L]
c1ccc(C2CC(c3ccc4[nH]c5c(c4c3)CCCC5)=NN2)cc1 (configuration not stated)	Mycobacterium tuberculosis	12
C(=C\C1CC(c2ccc3[nH]c4c(c3c2)CCCC4)=NN1)/c1ccccc1 (configuration not stated)	Mycobacterium tuberculosis	25

Please give the measured MIC for this compound: NC(=O)c1cnccn1 [PYRAZINAMIDE]
10

Please give the measured MIC for this compound: Cc1ccc(C2CC(c3ccc4[nH]c5c(c4c3)CCCC5)=NN2)cc1 (configuration not stated)
12

Please give the measured MIC for this compound: Clc1cccc(C2CC(c3ccc4[nH]c5c(c4c3)CCCC5)=NN2)c1 (configuration not stated)
4.5

Please give the measured MIC for this compound: CN[C@@H]1[C@H](O[C@H]2[C@H](O[C@H]3[C@H](O)[C@@H](O)[C@H](N=C(N)N)[C@@H](O)[C@@H]3N=C(N)N)O[C@@H](C)[C@]2(O)C=O)O[C@@H](CO)[C@H](O)[C@H]1O
7.5

Please give the measured MIC for this compound: O=[N+]([O-])c1ccc(C2CC(c3ccc4[nH]c5c(c4c3)CCCC5)=NN2)cc1 (configuration not stated)
10
